Sourced from paper PMC7949130

target: T1, native sulfated human anionic trypsin purified from pancreatic juice (human, UniProt P07478 24-247, sulfated on Tyr154); assay: equilibrium binding assay (free trypsin activity on a fluorogenic substrate); fixed trypsin incubated with increasing SPINK1, 0.2 ml, 0.1 M Tris-HCl (pH 8.0), 150 mM NaCl, 1 mM CaCl2, 0.05% Tween 20, 15 h; free trypsin measured with Z-Gly-Pro-Arg-AMC; apparent KD, global fit of at least three experiments; settings: both partners purified
T1 construct: human anionic trypsin, the active enzyme cut from anionic trypsinogen by enteropeptidase; also called Hu2-SO4 (native); Hu2-SO4
T1 sequence (P07478 24-247): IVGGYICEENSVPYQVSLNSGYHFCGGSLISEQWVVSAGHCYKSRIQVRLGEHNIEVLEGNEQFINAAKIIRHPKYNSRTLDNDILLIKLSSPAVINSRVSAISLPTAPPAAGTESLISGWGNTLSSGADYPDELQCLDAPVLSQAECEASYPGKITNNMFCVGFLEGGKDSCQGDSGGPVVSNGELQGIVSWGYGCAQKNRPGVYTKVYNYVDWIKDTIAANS
Property measured: pKd
As a rule, pKd stands for the negative log10 of the concentration, concentration in M.

See these solved cases before continuing.
SPINK1 variant Q68R, C-terminal 10His tag (natural protein, human, UniProt P00995 24-79, looked up, also called SPINK1 Q68R; p.Q68R; source: HEK 293T, transfected, purified from conditioned medium (nickel-nitrilotriacetic acid cartridge); not shown: 10His, C-terminal, kept) DSLGREAKCYNELNGCTKIYDPVCGTDGNTYPNECVLCFENRKRRTSILIQKSGPC = 10.57
SPINK1 variant P55S, C-terminal 10His tag (natural protein, human, UniProt P00995 24-79, looked up, also called SPINK1 P55S; p.P55S; source: HEK 293T, transfected, purified from conditioned medium (nickel-nitrilotriacetic acid cartridge); not shown: 10His, C-terminal, kept) DSLGREAKCYNELNGCTKIYDPVCGTDGNTYSNECVLCFENRKRQTSILIQKSGPC = 9.91

Record request: pKd value, item SPINK1 variant I42M, C-terminal 10His tag (natural protein, human, UniProt P00995 24-79, looked up, also called SPINK1 I42M; p.I42M; source: HEK 293T, transfected, purified from conditioned medium (nickel-nitrilotriacetic acid cartridge); not shown: 10His, C-terminal, kept) DSLGREAKCYNELNGCTKMYDPVCGTDGNTYPNECVLCFENRKRQTSILIQKSGPC 9.59

Then what about the binder SPINK1 variant N37S, C-terminal 10His tag (natural protein, human, UniProt P00995 24-79, looked up, also called SPINK1 N37S; p.N37S; source: HEK 293T, transfected, purified from conditioned medium (nickel-nitrilotriacetic acid cartridge); not shown: 10His, C-terminal, kept) DSLGREAKCYNELSGCTKIYDPVCGTDGNTYPNECVLCFENRKRQTSILIQKSGPC ? 10.67

Then what about the binder SPINK1 variant R65Q, C-terminal 10His tag (natural protein, human, UniProt P00995 24-79, looked up, also called SPINK1 R65Q; p.R65Q; source: HEK 293T, transfected, purified from conditioned medium (nickel-nitrilotriacetic acid cartridge); not shown: 10His, C-terminal, kept) DSLGREAKCYNELNGCTKIYDPVCGTDGNTYPNECVLCFENQKRQTSILIQKSGPC ? 11.22
